Measured values drawn from ChEMBL document CHEMBL4406804 for this set.

Reported IC50 values follow for various molecules
EXPERIMENTAL_TARGET: Glucocorticoid receptor (Homo sapiens)
Sequence (P04150 whole entry): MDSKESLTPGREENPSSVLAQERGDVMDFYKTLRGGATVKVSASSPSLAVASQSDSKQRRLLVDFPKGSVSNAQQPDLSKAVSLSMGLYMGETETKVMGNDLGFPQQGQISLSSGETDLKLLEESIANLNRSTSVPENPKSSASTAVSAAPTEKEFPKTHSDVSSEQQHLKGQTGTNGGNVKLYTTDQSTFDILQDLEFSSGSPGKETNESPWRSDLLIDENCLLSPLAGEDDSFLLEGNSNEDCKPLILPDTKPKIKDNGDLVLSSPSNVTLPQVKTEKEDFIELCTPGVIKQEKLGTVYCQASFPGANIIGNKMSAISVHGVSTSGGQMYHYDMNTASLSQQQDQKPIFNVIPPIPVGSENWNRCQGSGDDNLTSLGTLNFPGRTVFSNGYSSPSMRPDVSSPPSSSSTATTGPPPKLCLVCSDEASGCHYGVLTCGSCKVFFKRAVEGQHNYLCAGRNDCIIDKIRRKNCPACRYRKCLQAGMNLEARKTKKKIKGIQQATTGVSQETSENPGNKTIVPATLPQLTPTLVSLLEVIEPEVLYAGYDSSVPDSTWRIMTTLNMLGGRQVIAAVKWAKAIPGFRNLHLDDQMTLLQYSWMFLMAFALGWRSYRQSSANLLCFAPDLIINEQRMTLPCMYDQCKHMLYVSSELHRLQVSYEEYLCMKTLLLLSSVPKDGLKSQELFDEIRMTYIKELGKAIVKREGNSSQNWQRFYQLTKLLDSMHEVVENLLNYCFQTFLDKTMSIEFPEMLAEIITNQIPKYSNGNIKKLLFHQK
TEST_DESCRIPTION: Antagonist activity at human glucocorticoid receptor expressed in CHO-K1 cells harboring firefly luciferase gene after 20 hrs by One-Glo luciferase reporter gene assay
Assay type: cell-based
ENDPOINT_LABEL: IC50 (nM)

>>> recorded_number("CC(C)C#C[C@]1(O)CC[C@H]2[C@@H]3CCC4=CC(=O)CC[C@]4(C)[C@H]3[C@@H](c3ccc(N(C)C)cc3)C[C@@]21C")
62
>>> recorded_number("CC(C)(C)C#C[C@]1(O)CC[C@H]2[C@@H]3CCC4=CC(=O)CC[C@@H]4[C@H]3[C@@H](c3ccc(N4CCOCC4)cc3)C[C@@]21C")
10.3
>>> recorded_number("CN(C)c1ccc([C@H]2C[C@@]3(C)[C@@H](CC[C@@]3(O)C#CC(F)(F)F)[C@@H]3CCC4=CC(=O)CC[C@]4(C)[C@H]32)cc1")
47.2

###

EXPERIMENTAL_TARGET: Androgen receptor (Homo sapiens, UniProt P10275)
Sequence (P10275 whole entry): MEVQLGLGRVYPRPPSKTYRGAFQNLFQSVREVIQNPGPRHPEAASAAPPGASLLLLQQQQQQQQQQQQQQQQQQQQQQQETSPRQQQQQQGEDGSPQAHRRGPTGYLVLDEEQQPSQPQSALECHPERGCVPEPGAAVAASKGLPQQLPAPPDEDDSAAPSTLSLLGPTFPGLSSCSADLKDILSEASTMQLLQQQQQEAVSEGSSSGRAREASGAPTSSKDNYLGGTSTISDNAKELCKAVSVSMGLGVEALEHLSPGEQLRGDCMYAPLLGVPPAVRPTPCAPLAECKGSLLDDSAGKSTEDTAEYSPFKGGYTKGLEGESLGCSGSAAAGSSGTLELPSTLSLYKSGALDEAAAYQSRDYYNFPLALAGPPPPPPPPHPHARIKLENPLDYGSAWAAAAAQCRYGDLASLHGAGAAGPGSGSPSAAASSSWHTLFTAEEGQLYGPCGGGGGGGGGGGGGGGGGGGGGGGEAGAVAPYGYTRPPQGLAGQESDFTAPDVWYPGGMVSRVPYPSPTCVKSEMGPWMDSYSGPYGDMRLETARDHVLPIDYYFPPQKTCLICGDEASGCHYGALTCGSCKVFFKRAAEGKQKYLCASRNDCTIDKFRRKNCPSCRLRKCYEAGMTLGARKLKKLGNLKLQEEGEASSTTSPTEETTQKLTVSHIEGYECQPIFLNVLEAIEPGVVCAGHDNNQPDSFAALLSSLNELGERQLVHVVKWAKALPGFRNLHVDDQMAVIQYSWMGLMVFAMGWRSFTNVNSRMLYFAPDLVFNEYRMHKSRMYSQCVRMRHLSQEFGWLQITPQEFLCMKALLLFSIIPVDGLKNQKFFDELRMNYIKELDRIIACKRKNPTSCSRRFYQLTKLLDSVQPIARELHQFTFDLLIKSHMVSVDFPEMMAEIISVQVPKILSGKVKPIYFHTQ
TEST_DESCRIPTION: Antagonist activity at human androgen receptor in human LNCAP cells harboring firefly luciferase gene after 20 hrs by One-Glo luciferase reporter gene assay
ENDPOINT_LABEL: IC50

>>> result("CCC(C)(C)C#C[C@]1(O)CC[C@H]2[C@@H]3CCC4=CC(=O)CC[C@@H]4[C@H]3[C@@H](c3ccc(N(C)C)cc3)C[C@@]21C")
"0.175 µM"
>>> result("CN(C)c1ccc([C@H]2C[C@@]3(C)[C@@H](CC[C@@]3(O)C#CC(F)(F)F)[C@@H]3CCC4=CC(=O)CC[C@]4(C)[C@H]32)cc1")
"0.642 µM"
>>> result("CC(C)(C)C#C[C@]1(O)CC[C@H]2[C@@H]3CCC4=CC(=O)CC[C@@H]4[C@H]3[C@@H](c3ccc(N4CCN(S(C)(=O)=O)CC4)cc3)C[C@@]21C")
"0.359 µM"
